biological target: E. coli ClpP (Escherichia coli); construct: His-tag; made in house; host or cells: E. coli SG1146a; assay: Fluorescence-based E. coli ClpP proteolytic activity assay (Suc-LY-AMC), primary screen and dose-response; format: biochemical; conditions: dose-response, 1:3 dilution starting from 200 μM; substrate Suc-LY-AMC; read-out: E. coli ClpP IC50
Sequence (P0A6G7 15-207): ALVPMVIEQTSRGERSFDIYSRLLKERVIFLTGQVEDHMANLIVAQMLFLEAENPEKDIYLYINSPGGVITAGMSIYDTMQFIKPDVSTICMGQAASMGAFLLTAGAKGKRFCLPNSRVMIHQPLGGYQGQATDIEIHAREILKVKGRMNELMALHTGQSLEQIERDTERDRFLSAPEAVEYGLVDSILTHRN
Peptide text beside a SMILES is read from it.
Property: IC50; scope: individual compounds
Recorded metric: IC50 (µM)

compound="N.N.[Cl][Pt][Cl] [Cisplatin, cisplatin]" assay_target="E. coli ClpP (Escherichia coli)" endpoint_value=31
compound="N.N.[Cl-].[Cl][Pt+].c1ccncc1 [cDPCP]" assay_target="E. coli ClpP (Escherichia coli)" endpoint_value=24.6
compound="CC(C)C[C@H](NC(=O)OCc1ccccc1)C(=O)N[C@@H](Cc1ccc(O)cc1)C(=O)CCl [Z-LY-CMK] (HELM PEPTIDE1{[O=C(OCc1ccccc1)[*:2]].L.Y.[ClC[*:1]]}$$$$V2.0)" assay_target="E. coli ClpP (Escherichia coli)" endpoint_value=14
